Species: Homo sapiens
Protocol Notes: Selectivity ratio; ratio of pEC50 for human adenosine A2A receptor to pEC50 for human adenosine A3 receptor
Property Name: Selectivity ratio

Examples with answers:
>  <Test Smiles>
CCN(CC)c1nc(NC2CCCC2)c2ncn([C@@H]3O[C@H](C(=O)NC)[C@@H](O)[C@H]3O)c2n1

>  <Selectivity ratio>
> 4

$$$$
>  <Test Smiles>
CCCCNc1nc(N)nc2c1ncn2[C@@H]1O[C@H](C(=O)NC)[C@@H](O)[C@H]1O

>  <Selectivity ratio>
> 251

$$$$
>  <Test Smiles>
CNC(=O)[C@H]1O[C@@H](n2cnc3c(NC)nc(N)nc32)[C@H](O)[C@@H]1O

>  <Selectivity ratio>
> 2000

$$$$
>  <Test Smiles>
CCNc1nc(N)nc2c1ncn2[C@@H]1O[C@H](C(=O)NC)[C@@H](O)[C@H]1O

>  <Selectivity ratio>
> 1000

$$$$

For the next question, use this compound.
q: // Input: CCCNc1nc(N)nc2c1ncn2[C@@H]1O[C@H](C(=O)NC)[C@@H](O)[C@H]1O . Output its Selectivity ratio only.
a: > 1000

====

Organism: Homo sapiens
Protocol Notes: Selectivity ratio; ratio of pEC50 for human adenosine A2B receptor to pEC50 for human adenosine A3 receptor
Property Name: Selectivity ratio

q: // Input: CCN(CC)c1nc(NC2CCCC2)c2ncn([C@@H]3O[C@H](C(=O)NC)[C@@H](O)[C@H]3O)c2n1 . Output its Selectivity ratio only.
a: > 4

q: // Input: CNC(=O)[C@H]1O[C@@H](n2cnc3c(NCc4cccc(I)c4)nc(N)nc32)[C@H](O)[C@@H]1O . Output its Selectivity ratio only.
a: 100

q: // Input: CNC(=O)[C@H]1O[C@@H](n2cnc3c(NC4CCCC4)nc(N(C)C)nc32)[C@H](O)[C@@H]1O . Output its Selectivity ratio only.
a: > 16
